Data origin: patent US20210246166A1

Molecular target: recombinant human MASP2 active protease (amino acids 297-686, C-terminal His Tag) (human, UniProt O00187 297-686)
Sequence (O00187 other isoform, or with tags, fused parts or gaps limits assumed): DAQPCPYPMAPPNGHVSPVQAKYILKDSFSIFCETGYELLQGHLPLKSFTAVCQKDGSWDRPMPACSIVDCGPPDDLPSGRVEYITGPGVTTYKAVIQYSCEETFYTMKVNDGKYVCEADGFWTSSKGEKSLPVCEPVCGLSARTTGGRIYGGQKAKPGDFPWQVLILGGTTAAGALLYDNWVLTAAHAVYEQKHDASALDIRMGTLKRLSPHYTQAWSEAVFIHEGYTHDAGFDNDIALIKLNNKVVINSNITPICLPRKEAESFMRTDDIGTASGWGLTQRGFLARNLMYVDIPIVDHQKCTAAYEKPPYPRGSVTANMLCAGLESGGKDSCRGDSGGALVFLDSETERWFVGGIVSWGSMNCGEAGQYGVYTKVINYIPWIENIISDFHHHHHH
Assay: cell-based or functional assay
Bridge positions count the residues as written; N and C are the ends. Square brackets hold non-standard residues; d marks the D form. Ends that are not written are not given here. Hyp = O=C(O)[C@@H]1C[C@@H](O)CN1; tBuAla = CC(C)(C)C[C@H](N)C(=O)O; Pen = CC(C)(S)[C@H](N)C(=O)O; NMeC = CN[C@@H](CS)C(=O)O; Orn = NCCC[C@H](N)C(=O)O
Listing: human MASP2 IC50 of selected binders
PARAMETER: human MASP2 IC50

[Orn]AICSRS[tBuAla]PPI[NMeC]IPD-NH2 (disulfide 4-12; N-terminus assumed; SMILES CC[C@H](C)[C@H](NC(=O)[C@H](C)NC(=O)[C@@H](N)CCCN)C(=O)N[C@H]1CSSC[C@@H](C(=O)N[C@H](C(=O)N2CCC[C@H]2C(=O)N[C@@H](CC(=O)O)C(N)=O)[C@@H](C)CC)N(C)C(=O)[C@H]([C@@H](C)CC)NC(=O)[C@@H]2CCCN2C(=O)[C@@H]2CCCN2C(=O)[C@H](CC(C)(C)C)NC(=O)[C@H](CO)NC(=O)[C@H](CCCNC(=N)N)NC(=O)[C@H](CO)NC1=O) [Example 399: (Orn)-AIC+SRS-((tBu)A)-PPI-((N-Me)C)+IPD-NH2]
520 nM
ICSRS[tBuAla]PPI[Pen]IP-NH2 (disulfide 2-10; N-terminus assumed; SMILES CC[C@H](C)[C@H](N)C(=O)N[C@H]1CSSC(C)(C)[C@@H](C(=O)N[C@H](C(=O)N2CCC[C@H]2C(N)=O)[C@@H](C)CC)NC(=O)[C@H]([C@@H](C)CC)NC(=O)[C@@H]2CCCN2C(=O)[C@@H]2CCCN2C(=O)[C@H](CC(C)(C)C)NC(=O)[C@H](CO)NC(=O)[C@H](CCCNC(=N)N)NC(=O)[C@H](CO)NC1=O) [Example 316: IC+SRS-((tBu)A)-PPI-(Pen)+IP-NH2]
660 nM
{2‑Hydroxyisobutyric}-ICSRS[tBuAla]PPICIPD-NH2 (disulfide 2-10) [Example 392: (2-Hydroxyisobutyric)-IC+SRS-((tBu)A)-PPIC+IPD-NH2]
80 nM
GICSRSLP[Hyp]ICIPD-OH (disulfide 3-11; N-terminus assumed; SMILES CC[C@H](C)[C@H](NC(=O)CN)C(=O)N[C@H]1CSSC[C@@H](C(=O)N[C@H](C(=O)N2CCC[C@H]2C(=O)N[C@@H](CC(=O)O)C(=O)O)[C@@H](C)CC)NC(=O)[C@H]([C@@H](C)CC)NC(=O)[C@@H]2C[C@@H](O)CN2C(=O)[C@@H]2CCCN2C(=O)[C@H](CC(C)C)NC(=O)[C@H](CO)NC(=O)[C@H](CCCNC(=N)N)NC(=O)[C@H](CO)NC1=O) [Example 410: GIC+SRSLP-(Hyp)-IC+IPD-OH]
2700 nM
